Data provenance is PubChem BioAssay AID1159580.

- ASSAY METHOD TEXT: chemical genetic growth profiling, strain panel (AID 1159580);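 further: tested at 20 µM; growth read once vehicle control cultures reached saturation at 30 °C; 1 = growth at the plate median or of vehicle wells; lower values mean less growth of the strain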
- REPORTED CONDITIONS: S. cerevisiae deletion strains, growth OD, locus YAL013W, strain DEP1, active compounds read low
Out of some 5,500 compounds screened, about 2,000 (36%) were called active. Inconclusive results (about 18%) are left out. The list shows a part of the results.
Field: normalized growth. Provide a value for each of the molecules that follow.

Sample NC(N)=O — what was its normalized growth?
1.02 (inactive)

Sample NC(=O)C(=O)O — what was its normalized growth?
1.01 (inactive)

Sample COc1cc(OC)c2c3c1C(=O)c1c(OC)cc(C)c4c(OC)cc(c-3c14)C(C)(C)C2=O — what was its normalized growth?
1.02 (inactive)

Sample CNC(=O)[C@H]1O[C@@H](n2cnc3c(NCc4ccc(I)cc4)nc(Cl)nc32)[C@H](O)[C@@H]1O — what was its normalized growth?
0.986 (inactive)

Sample C/C(=N/Nc1c(Cl)cc(Cl)cc1Cl)c1cc(F)ccc1OC(=O)c1ccccc1F — what was its normalized growth?
0.99 (inactive)

Sample COc1cc(S(C)=O)ccc1-c1nc2ncccc2[nH]1 (stereo unspecified) — what was its normalized growth?
1.01 (inactive)

Sample CC(=O)O[C@H]1CC[C@]2(C)C3=CC(=O)[C@@]4(C)C(C[C@@H]5OC6(OCC(C)CC6Br)[C@@H](C)[C@@H]54)C3CC[C@H]2C1 (stereo partly specified) — what was its normalized growth?
1.01 (inactive)

Sample COc1ccc(C=Nc2ccc(O)cc2)cc1 — what was its normalized growth?
0.999 (inactive)

Sample O=C1/C(=C/c2ccc(Cl)cc2)COc2ccc(F)cc21 — what was its normalized growth?
0.956 (inactive)

Sample CCC(=O)c1c(C)c(C)c(C)c(C)c1C — what was its normalized growth?
0.985 (inactive)

Sample COc1ccc(N=Cc2ccccc2O)cc1 — what was its normalized growth?
0.993 (inactive)

* * *

- ASSAY METHOD TEXT: chemical genetic growth profiling, strain panel (AID 1159580);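 further: tested at 20 µM; growth read once vehicle control cultures reached saturation at 30 °C; 1 = growth at the plate median or of vehicle wells; lower values mean less growth of the strain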
- REPORTED CONDITIONS: S. cerevisiae deletion strains, growth OD, locus YLR320W, strain mms22, active compounds read low
Screen size: about 5,500 compounds; about 2,000 (36%) were called active. Inconclusive results (about 18%) are left out. This is one part of the list.
# note: exactly 1 is not below, so it is No; use Yes for normalized growth strictly under it

Field: below-cutoff. Rule: recorded normalized growth strictly less than 1. Subject: Cc1ncc([N+](=O)[O-])n1CC(C)O (configuration not stated)
Yes

Field: below-cutoff. Rule: recorded normalized growth strictly less than 1. Subject: C=Cc1c(C)c2[n-]c1=Cc1[n-]c(c(CC)c1C)C=c1[n-]c3c(c1C)C(=O)C(C(=O)[O-])C=3c1[n-]c(c(C)c1CCC(=O)[O-])C=2.[Cu] (configuration not stated)
No

Field: below-cutoff. Rule: recorded normalized growth strictly less than 1. Subject: CCC(=O)Nc1ccc(Cl)c(Cl)c1
Yes

Field: below-cutoff. Rule: recorded normalized growth strictly less than 1. Subject: CCN(CC)C(C)CN1c2ccccc2Sc2ccccc21 (configuration not stated)
Yes

Field: below-cutoff. Rule: recorded normalized growth strictly less than 1. Subject: C[C@@H](N)[C@@H](O)c1ccccc1
Yes

Field: below-cutoff. Rule: recorded normalized growth strictly less than 1. Subject: C[C@H](CCC(=O)O)[C@H]1CCC2C3C(CC[C@@]21C)[C@@]1(C)CC[C@@H](O)C[C@H]1C[C@@H]3O (some centres not stated)
No

Field: below-cutoff. Rule: recorded normalized growth strictly less than 1. Subject: CN(C)CCC(c1ccc(Br)cc1)c1ccccn1 (configuration not stated)
No
